- Target of assay: Sodium-dependent noradrenaline transporter (Homo sapiens)
- Sequence (P23975 whole entry): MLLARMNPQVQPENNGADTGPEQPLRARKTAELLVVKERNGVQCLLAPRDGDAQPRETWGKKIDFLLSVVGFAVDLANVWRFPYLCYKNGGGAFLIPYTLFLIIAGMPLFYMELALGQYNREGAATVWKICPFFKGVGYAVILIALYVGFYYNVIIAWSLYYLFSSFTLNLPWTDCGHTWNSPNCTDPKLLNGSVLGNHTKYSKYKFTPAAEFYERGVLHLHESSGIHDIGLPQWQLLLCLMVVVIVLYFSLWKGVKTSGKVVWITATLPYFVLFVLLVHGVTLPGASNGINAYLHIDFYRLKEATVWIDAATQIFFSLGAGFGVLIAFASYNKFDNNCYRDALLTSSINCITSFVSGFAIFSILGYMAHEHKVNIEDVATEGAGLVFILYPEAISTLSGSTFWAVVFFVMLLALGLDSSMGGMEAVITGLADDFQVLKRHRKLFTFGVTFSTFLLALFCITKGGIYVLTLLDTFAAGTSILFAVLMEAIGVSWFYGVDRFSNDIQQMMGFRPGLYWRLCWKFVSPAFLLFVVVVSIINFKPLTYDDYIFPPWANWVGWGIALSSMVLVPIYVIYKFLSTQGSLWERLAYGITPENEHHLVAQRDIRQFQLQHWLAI
- Method notes: Enhancing of [125I]RTI-55 binding to recombinant human NET expressed in HEK293 cell membranes preincubated for 10 mins followed by radioligand addition measured after 90 mins by micro beta scintillation counting analysis
- Parameters: concentration or dose not given beside the values
Measured metric: Activity (%)
Please respond with the number in % and leave the unit unwritten.

Query: Give the value of Activity reported for the following: CNc1nc(C#Cc2ccc(Cl)s2)nc2c1ncn2[C@@H]1O[C@H](C(=O)OC)[C@@H](O)[C@H]1O
Reply: 227

Query: Output measured Activity for this item: CCCOC(=O)[C@@]12C[C@@H]1[C@@H](n1cnc3c(NC)nc(C#Cc4ccc(Cl)s4)nc31)[C@H](O)[C@@H]2O
Reply: 302

Query: Tell me its Activity given CNc1nc(C#Cc2ccc(Cl)s2)nc2c1ncn2[C@H]1[C@H](O)[C@H](O)[C@]2(C(=O)OC)C[C@H]12 as the entry.
Reply: 375

Query: Please give measured Activity of the following entry: CNC(=O)[C@@]12C[C@@H]1[C@@H](n1cnc3c(NC)nc(C#Cc4ccc(Cl)s4)cc31)[C@H](O)[C@@H]2O
Reply: 318

Query: Specify measured Activity for CCOC(=O)[C@@]12C[C@@H]1[C@@H](n1cnc3c(NC)nc(C#Cc4ccc(Cl)s4)nc31)[C@H](O)[C@@H]2O .
Reply: 365

Query: Determine from records and report Activity for CNC(=O)[C@@]12C[C@@H]1[C@@H](n1cnc3c(NC)nc(C#Cc4ccc(F)c(F)c4)nc31)[C@H](O)[C@@H]2O
Reply: 371

Query: Please indicate Activity recorded for CCCNc1nc(C#Cc2ccc(Cl)s2)nc2c1ncn2[C@H]1[C@H](O)[C@H](O)[C@]2(C(=O)NC)C[C@H]12
Reply: 159

Query: State its Activity: CNC(=O)[C@@]12C[C@@H]1[C@@H](n1cnc3c(NC)nc(C#Cc4ccc(Cl)s4)nc31)[C@H](O)[C@@H]2O
Reply: 386

Query: Supply measured Activity of CNc1nc(C#Cc2ccc(Br)s2)nc2c1ncn2[C@H]1[C@H](O)[C@H](O)[C@]2(C(=O)OC)C[C@H]12 in your reply.
Reply: 293

Query: Look up and report measured Activity for this entry: CNC(=O)[C@@]12C[C@@H]1[C@@H](n1cnc3c(NC)nc(C#Cc4ccc(Br)s4)nc31)[C@H](O)[C@@H]2O
Reply: 285
